Data provenance is ChEMBL document CHEMBL1201862.

Recorded GI50 values for a group of compounds are listed next.
tested on: BT-549; assay: NCI tumour cell line growth inhibition, 48 h
The source made the active and inactive calls. No stated cut-off is given here; in the data, active = GI50 up to about 1.1 µM and inactive = higher.

Compound	GI50
O=C(CSc1nnc(SCC(=O)NN=C2CCCCC2)s1)NN=C1CCCCC1	> 100 µM (inactive)
CCOC(=O)c1nc2ccccc2nc1Nc1ccc(Cl)c(Cl)c1	12.8 µM (inactive)
COC(=O)c1c([N+](=O)[O-])ncn1[C@H]1OC[C@@H](OC(C)=O)[C@@H](OC(C)=O)[C@@H]1OC(C)=O	> 100 µM (inactive)
Cn1c(=O)c2nc(CCCCc3nc4ccccc4[nH]3)[nH]c2n(C)c1=O	> 100 µM (inactive)
Cc1cc[n+]2c(c1)-c1cc(C)cc[n+]1CC2	> 100 µM (inactive)
CC1(C)OCC(C2OC(=O)C(OCc3ccccc3)=C2OCc2ccccc2)O1 (stereo unspecified)	35 µM (inactive)
CCCCNC(=S)N/N=C/c1cccc(C)n1	49.4 µM (inactive)
COn1oc(=O)c2ccccc21	> 100 µM (inactive)
C=C(C)[C@@]1(O)CCC[C@H]1NC(=O)OC(C)(C)C	> 100 µM (inactive)
O=C(O)CN(CC(=O)O)Cc1cc(C#Cc2ccc(C#Cc3ccccc3)cc2)cc(CN(CC(=O)O)CC(=O)O)n1	12.3 µM (inactive)
C=C1CC(OC(C)=O)/C=C(/C)CCC(C(C)(C)O)CC1O (stereo unspecified)	> 100 µM (inactive)

###

test system: M14; assay: NCI tumour cell line growth inhibition, 48 h
Active and inactive are the calls of the source. Cut-off read from the data, not from the text of the source: active = GI50 up to about 1.1 µM and inactive = higher. Where a SMILES comes first, the peptide text is derived from it. The star is where a group is joined. Boc = CC(C)(C)OC(=O)*; OBn = c1ccc(CO*)cc1
Recorded GI50 values for a group of compounds are listed next.

Compound	Measured Target	GI50
Cc1cc2nc3[nH]c4c(Cl)cc(Cl)cc4c3nc2cc1C	M14	> 100 µM (inactive)
NCC(=O)OCN1C(=O)C2C3C=CC(C2C1=O)C1C2C(=O)N(COC(=O)CN)C(=O)C2C31 (stereo not given)	M14	20.5 µM (inactive)
COc1cc(/C=C2\CCc3cc(OC)c(OC)cc3C2=O)cc(OC)c1	M14	5.47 µM (inactive)
CCOC(=O)C(=O)Nc1cc(Cl)c(Cl)cc1Cl	M14	> 100 µM (inactive)
CC1(C)O[C@@H](CP(c2ccccc2)c2ccccc2)[C@H](CP(c2ccccc2)c2ccccc2)O1	M14	5.94 µM (inactive)
CC1=C(C(=O)Nc2ccc([N+](=O)[O-])cc2)C(c2ccccc2O)C(C(=O)Nc2ccc([N+](=O)[O-])cc2)=C(C)N1	M14	19.3 µM (inactive)
C=CC1=C(C)c2cc3[nH]c(c4c5nc(cc6[nH]c(cc1n2)c(C)c6CC)C(C)=C5C(=O)[C@@H]4C(=O)OC)[C@@H](CCC(=O)O)[C@@H]3C	M14	3.66 µM (inactive)
O=P(Nc1ccc(Cl)cc1)(Oc1ccccc1)N(CCCl)CCCl (stereo not given)	M14	> 100 µM (inactive)
CN(C)C(=S)/N=c1\ssc(=S)n1Cc1cccs1	M14	3.01 µM (inactive)
COc1ccc(C2OC(=O)c3ccc4ccccc4c32)c(C)c1 (stereo not given)	M14	6.73 µM (inactive)
O=C1C[C@H]2[C@H](c3ccc(Br)cc3)[C@H]3C(=O)c4ccccc4NC(=O)[C@@H]3[C@@]2(O)c2ccccc2N1	M14	12.3 µM (inactive)
COc1c2c(cc3nc4ccccc4nc13)CCC(C(C)(C)O)C2 (stereo not given)	M14	> 100 µM (inactive)
CC(=O)/C=c1\[nH]/c(=C\C=C\c2ccccc2)c(=O)n1/C=C1\C(=O)Oc2ccccc2C1=O	M14	> 100 µM (inactive)
CCCCN(C)CC(C(C)=O)C(c1ccccc1)c1c(O)c2ccccc2oc1=O (stereo not given)	M14	> 100 µM (inactive)
C/C=C/C/C=C/CCC(=O)C1OC1C(N)=O (stereo not given)	M14	15.8 µM (inactive)
C[C@]12CC[C@H](O)CC1=CC[C@@H]1C2CC[C@]2(C)c3n[nH]nc3CC12 (stereo not given in full)	M14	> 100 µM (inactive)
N/N=C(\N)Nc1cccc2ccccc12	M14	> 100 µM (inactive)
O=C1C(O)=C(Cl)C(=O)c2c(O)ccc(O)c21	M14	> 100 µM (inactive)
O=C1NC(NNc2ccccc2)=N/C1=C\c1ccco1	M14	8.47 µM (inactive)
C[C@]12CCC[C@H](Cl)C1(O)C[C@H](C(=O)O)CC2 (stereo not given in full)	M14	> 100 µM (inactive)
CC(Oc1ccc(Cl)cc1Cl)C(=O)NN1C(=O)CC(=O)NC1=S (stereo not given)	M14	> 100 µM (inactive)
CC(C)N1C(C)[C@@H](c2ccccc2)O[P@@]1(=O)CC1=CCCCC1 (stereo not given in full)	M14	> 100 µM (inactive)
Cc1ccc(NC(=O)C(=O)C(C#N)c2nc(-c3ccc(-c4ccccc4)cc3)cs2)c(C)c1 (stereo not given)	M14	> 100 µM (inactive)
O=[N+]([O-])c1ccc(Cl)c(C2CC(c3cccc4ccccc34)=Nc3ccccc3[S+]2[O-])c1 (stereo not given)	M14	17.7 µM (inactive)
NC1CC(n2ccc(=O)[nH]c2=O)OC1C(O)CO (stereo not given)	M14	> 100 µM (inactive)
CC(NC(=O)C(Cc1ccccc1)NC(=O)C(Cc1ccccc1)NC(=O)OC(C)(C)C)C(=O)OCc1ccccc1 (stereo not drawn) (Boc-Phe-Phe-Ala-OBn; configuration not given here)	M14	48.4 µM (inactive)
Cn1c2c(c3ccccc31)CC1c3c(c4ccccc4n3C)CC21 (stereo not given)	M14	> 100 µM (inactive)
Cc1ccc(O)c(-c2cc(-c3ccccc3)nc(/N=C\c3ccccc3)n2)c1	M14	> 100 µM (inactive)
CC(C)OC(=O)NCCn1cc(-c2ccccc2)nn1	M14	> 100 µM (inactive)
CCC1NC(/N=N/c2ccc([N+](=O)[O-])cc2)(P(=O)(OC(C)C)OC(C)C)OC1=O (stereo not given)	M14	> 100 µM (inactive)
O=C(CCl)Nc1ccc(C(=O)N/N=C/c2ccc(Cl)cc2)cc1	M14	6.41 µM (inactive)
O=C1Nc2ccccc2/C1=c1\[nH]c(=O)/c(=C\c2ccc(OCc3ccccc3)cn2)[nH]c1=O	M14	56.6 µM (inactive)
O=C(CSc1nnc(SCC(=O)NN=C2CCCCC2)s1)NN=C1CCCCC1	M14	> 100 µM (inactive)
O=C(O)/C(Cl)=C(\Cl)C(=O)Nc1ccccc1	M14	> 100 µM (inactive)
Cc1ccc2c(c1C)CC1(Cc3ccc(C)c(C)c3C1=O)C2=O (stereo not given)	M14	> 100 µM (inactive)
O=c1c2ccccc2sc2cccc(NCCCN3CCN(CCCNc4cccc5sc6ccccc6c(=O)c45)CC3)c12	M14	> 100 µM (inactive)
O=C(Nc1ccccc1)OCCN=c1c2ccccc2ccc2ccccc12	M14	19.1 µM (inactive)
COn1oc(=O)c2ccccc21	M14	> 100 µM (inactive)
c1cnc2c(c1)-n1cccc1C1(CCSC1)NN2 (stereo not given)	M14	> 100 µM (inactive)
Cc1cc([N+](=O)[O-])ccc1/N=N/C(=O)NNc1ccc([N+](=O)[O-])cc1C	M14	13.6 µM (inactive)
